Experimental protocol: in vivo
Assay context: female, NMRI, mouse, iv, 45 pmol, total radioactivity, Uptake in carcass

| Molecule | tissue uptake dose at 2 h / %ID |
| --- | --- |
| CC(C)C[C@H](NC(=O)C[C@H](O)[C@H](CC(C)C)NC(=O)[C@H](Cc1c[nH]cn1)NC(=O)CNC(=O)[C@@H](NC(=O)[C@H](C)NC(=O)[C@H](Cc1c[nH]c2ccccc12)NC(=O)[C@H](CCC(N)=O)NC(=O)[C@@H](Cc1ccccc1)NC(=O)COCCOCCNC(=O)CN1CCN(CC(=O)O)CCN(CC(=O)O)CC1)C(C)C)C(N)=O [PEG2] | 0.9 |

====

Experimental protocol: in vivo
Assay context: female, NMRI, mouse, iv, 45 pmol, total radioactivity, Uptake in carcass

| Compound string | tissue uptake dose at 2 h, %ID |
| --- | --- |
| CC(C)C[C@H](NC(=O)C[C@H](O)[C@H](CC(C)C)NC(=O)[C@H](Cc1c[nH]cn1)NC(=O)CNC(=O)[C@@H](NC(=O)[C@H](C)NC(=O)[C@H](Cc1c[nH]c2ccccc12)NC(=O)[C@H](CCC(N)=O)NC(=O)[C@@H](Cc1ccccc1)NC(=O)CCOCCOCCOCCNC(=O)CN1CCN(CC(=O)O)CCN(CC(=O)O)CC1)C(C)C)C(N)=O | 0.7 |
| CC(C)C[C@H](NC(=O)C[C@H](O)[C@H](CC(C)C)NC(=O)[C@H](Cc1c[nH]cn1)NC(=O)CNC(=O)[C@@H](NC(=O)[C@H](C)NC(=O)[C@H](Cc1c[nH]c2ccccc12)NC(=O)[C@H](CCC(N)=O)NC(=O)[C@@H](Cc1ccccc1)NC(=O)CCOCCOCCOCCOCCNC(=O)CN1CCN(CC(=O)O)CCN(CC(=O)O)CC1)C(C)C)C(N)=O | 1.2 |
| CC(C)C[C@H](NC(=O)C[C@H](O)[C@H](CC(C)C)NC(=O)[C@H](Cc1c[nH]cn1)NC(=O)CNC(=O)[C@@H](NC(=O)[C@H](C)NC(=O)[C@H](Cc1c[nH]c2ccccc12)NC(=O)[C@H](CCC(N)=O)NC(=O)[C@@H](Cc1ccccc1)NC(=O)CCOCCOCCOCCOCCOCCOCCNC(=O)CN1CCN(CC(=O)O)CCN(CC(=O)O)CC1)C(C)C)C(N)=O | 0.71 |

====

Type: physicochemical
Assay context: pH 7.4
Overview of reported logD across a group of compounds:

| Compound | logD |
| --- | --- |
| CC(C)C[C@H](NC(=O)C[C@H](O)[C@H](CC(C)C)NC(=O)[C@H](Cc1c[nH]cn1)NC(=O)CNC(=O)[C@@H](NC(=O)[C@H](C)NC(=O)[C@H](Cc1c[nH]c2ccccc12)NC(=O)[C@H](CCC(N)=O)NC(=O)[C@@H](Cc1ccccc1)NC(=O)CCOCCOCCOCCOCCNC(=O)CN1CCN(CC(=O)O)CCN(CC(=O)O)CC1)C(C)C)C(N)=O | -2.49 |
| CC(C)C[C@H](NC(=O)C[C@H](O)[C@H](CC(C)C)NC(=O)[C@H](Cc1c[nH]cn1)NC(=O)CNC(=O)[C@@H](NC(=O)[C@H](C)NC(=O)[C@H](Cc1c[nH]c2ccccc12)NC(=O)[C@H](CCC(N)=O)NC(=O)[C@@H](Cc1ccccc1)NC(=O)CCOCCOCCOCCNC(=O)CN1CCN(CC(=O)O)CCN(CC(=O)O)CC1)C(C)C)C(N)=O | -2.47 |
| CC(C)C[C@H](NC(=O)C[C@H](O)[C@H](CC(C)C)NC(=O)[C@H](Cc1c[nH]cn1)NC(=O)CNC(=O)[C@@H](NC(=O)[C@H](C)NC(=O)[C@H](Cc1c[nH]c2ccccc12)NC(=O)[C@H](CCC(N)=O)NC(=O)[C@@H](Cc1ccccc1)NC(=O)COCCOCCNC(=O)CN1CCN(CC(=O)O)CCN(CC(=O)O)CC1)C(C)C)C(N)=O [^68Ga-NOTA-PEG2-RM26, metal not drawn] | -2.27 |
| CC(C)C[C@H](NC(=O)C[C@H](O)[C@H](CC(C)C)NC(=O)[C@H](Cc1c[nH]cn1)NC(=O)CNC(=O)[C@@H](NC(=O)[C@H](C)NC(=O)[C@H](Cc1c[nH]c2ccccc12)NC(=O)[C@H](CCC(N)=O)NC(=O)[C@@H](Cc1ccccc1)NC(=O)CCOCCOCCOCCOCCOCCOCCNC(=O)CN1CCN(CC(=O)O)CCN(CC(=O)O)CC1)C(C)C)C(N)=O [^68Ga-NOTA-PEG6-RM26, metal not drawn] | -2.5 |
